# System: RBM10 RRM1-ZnF-RRM2 (GST-tagged construct);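 note: 20 pmol protein with 1.5 nmol RNA pool for 30 min at 4°C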
# method: RNAcompete 7-mer binding Z-score; higher = stronger binding preference
In all, about 16,000 sequences were measured (“Z-score”: median about -0.37, highest 2% from about 3.1 on). Many of the other results were omitted from the sample, so the highest values are more common in it than they were.
measured_property: RNAcompete 7-mer binding Z-score

| chain | measurement |
| --- | --- |
| CAGUGGG | 2.93 |
| CAUGGGU | 2.58 |
| AAUGGGU | 4.1 |
| UAUGGGC | 1.64 |
| UAUGGGU | 2.81 |
| AAGUGGU | 1.6 |
| CGCAAAG | -0.22 |
| AAAGCAA | 0.563 |
| GUAGUGA | 1.1 |
| CAUGGAA | 1.36 |
| AAGUGGA | 3.2 |

---

# Tested on: RBM10 RRM1-ZnF-RRM2 (GST-tagged construct);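 note: 20 pmol protein with 1.5 nmol RNA pool for 30 min at 4°C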
# method: RNAcompete 7-mer binding Z-score; higher = stronger binding preference
Over roughly 16,000 sequences, “Z-score” has its median near -0.37; the highest 2% begin near 3.1. What follows is part of a selection rich in the highest values, with near analogues and random picks from the rest.
Please mark Met if the recorded RNAcompete 7-mer binding Z-score is equal to or greater than 0.6, and Not met if it falls below.

| chain | assigned_class |
| --- | --- |
| AAAGGGG | Met |
| AAAGGGC | Met |
| GAGGGGC | Met |
| GGGACCA | Met |
| GAAGUGU | Met |
| CAGGAAA | Met |
| GUGGGAA | Met |
| GAAUCUG | Not met |
| CAUGCUU | Not met |
| AAAACGU | Not met |
| GCUGGGU | Met |
| AAGGGGA | Met |
| CACAAUU | Not met |
| UGUGGGU | Met |
| GGGGGGC | Met |
| CAAGGGA | Met |
| CAAGGGG | Met |
| AUGGGAU | Met |
| AGUGGGA | Met |
| GCGACGC | Not met |
| CUGGGGA | Met |
| AAGGAAG | Met |
| CGUAUGU | Not met |
| CUCGAAA | Not met |
| CUACUAU | Not met |
| GGUGGGU | Met |
| GCGGGAA | Met |
| GGUGGCA | Met |
| CCUUUCC | Not met |
| GUUACUC | Not met |
| GAAGGCU | Not met |
| UAGGAAG | Met |
| GAGGGCU | Met |
| GAAGGGC | Met |
| ACUAACG | Not met |
| AUAAGAA | Not met |
| UGCUGCG | Not met |
| UGAUUAA | Not met |
| GAAGGGU | Met |
| GAGGAAU | Met |
| GGGCUGC | Met |
| GAGGAAG | Met |
| AGUGGUA | Met |
| GGGGUGA | Met |
| UAAGGUU | Met |
| GAGGGGU | Met |
| AAAGGGA | Met |

Where these numbers come from: the supplement of paper PMC5499739
